Organism: Bos taurus
Method: In vitro rumen propionic acid test procedure, 50 ug/mL
Format: functional
Reported Stimulation values follow for various molecules
Please state the figure in %; there is no need to write the unit.

The cases that follow already have their Stimulation on record.
CC(C)(C)CC(C)(C)c1cc(CCc2ccccc2)c2c(c1)OCCOCCOCc1cc(C(C)(C)C)cc(c1C(=O)O)COCCOCCO2 = 1.09
CC(C)(C)c1ccc(OCC2COc3ccccc3OCCOCCOCCOCc3cc(C(C)(C)C)cc(c3C(=O)O)CO2)cc1 (stereo not drawn) = 1.06
CC(C)(C)CC(C)(C)c1ccc2c(c1)OCCOCCOCc1cc(C(C)(C)C)cc(c1C(=O)O)COCCOCCO2 = 0.97
CC(C)(C)CC(C)(C)c1ccc2c(c1)OCCOCCOCCOCc1cc(C(C)(C)C)cc(c1C(=O)O)COCCOCCOCCO2 = 0.52
Cc1cc(C(C)(C)CC(C)(C)C)cc2c1OCCOCCOCCOCc1cc(C(C)(C)C)cc(c1C(=O)O)COCCOCCOCCO2 = 0.41
CCCCCCCCCCCc1ccc2c(c1)OCCOCCOCc1cccc(c1C(=O)O)COCCOCCO2 = 0.82
Cc1cc(C(C)(C)CC(C)(C)C)cc2c1OCCOCCOCc1cc(C(C)(C)C)cc(c1C(=O)O)COCCOCCO2 = 1.02

Ask: Output Stimulation of CC(C)(C)CC(C)(C)c1ccc2c(c1)OCCOCCOCc1cccc(c1C(=O)O)COCCOCCO2
Reply: 1.02
